// values below are reported Ki
Target: hCCR2 (Homo sapiens)
Sequence (P41597 1-360 isoform P41597-2): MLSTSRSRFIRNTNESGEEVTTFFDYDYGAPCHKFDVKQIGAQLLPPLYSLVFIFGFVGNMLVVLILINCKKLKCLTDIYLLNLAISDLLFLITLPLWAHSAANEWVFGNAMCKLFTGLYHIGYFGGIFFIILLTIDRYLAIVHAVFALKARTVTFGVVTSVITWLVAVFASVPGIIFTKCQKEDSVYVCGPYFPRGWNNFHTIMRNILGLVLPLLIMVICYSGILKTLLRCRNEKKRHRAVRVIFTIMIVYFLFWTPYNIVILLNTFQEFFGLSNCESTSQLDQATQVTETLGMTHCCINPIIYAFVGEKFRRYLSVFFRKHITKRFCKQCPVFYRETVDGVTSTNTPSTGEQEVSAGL

CCCc1[nH]c2nc(N)nn2c(=O)c1Cc1cccc(Cl)c1 [Compound 26]: ~4 nM
CCCCc1[nH]c2nc(N)nn2c(=O)c1Cc1cccc(Cl)c1 [Compound 28]: 2 nM

Now take the following molecule into account.
Query: # Ki lookup, item Cc1ccc(Cc2c(C3CC3)[nH]c3nc(N)nn3c2=O)cc1 [Compound 19]
Reply: 3 nM

These data points were gathered from paper PMC6935887.
